Values from patent US20230210831A1

Test system: Salmonella typhimurium TA100
test.protocol: Ames test (reverse mutation test), TA100
Format: cell-based
condition.description: S9 Mix -; dose 6.9 µg/plate
endpoint.name: Number of revertant colonies TA100

Some solved entries appear below for comparison.
{"compound": "Nc1cc(-c2cccc(OC(F)(F)F)c2)n(-c2cccc(F)c2)n1 [Metabolite G]", "Number of revertant colonies TA100": 101}
{"compound": "Cc1ccc(-n2nc(N)cc2-c2cccc(OCC(F)(F)F)c2)cc1 [Metabolite F]", "Number of revertant colonies TA100": 104}
{"compound": "Nc1cc(-c2cccc(OCC(F)(F)F)c2)n(-c2ccc(F)cc2)n1 [Metabolite E]", "Number of revertant colonies TA100": 96}

Endpoint output: Number of revertant colonies TA100 of Cc1cccc(-n2nc(N)cc2-c2cccc(OC(F)(F)F)c2)c1 [Metabolite H] . Value?
127

Endpoint output: Number of revertant colonies TA100 of CC(C)(OCc1cc(F)cc(-c2cc(N)nn2-c2ccc(F)cc2)c1)C(F)(F)F [Metabolite D] . Value?
98
